Molecular target: Alpha-1D adrenergic receptor (Homo sapiens, UniProt P25100)
Sequence (P25100 whole entry): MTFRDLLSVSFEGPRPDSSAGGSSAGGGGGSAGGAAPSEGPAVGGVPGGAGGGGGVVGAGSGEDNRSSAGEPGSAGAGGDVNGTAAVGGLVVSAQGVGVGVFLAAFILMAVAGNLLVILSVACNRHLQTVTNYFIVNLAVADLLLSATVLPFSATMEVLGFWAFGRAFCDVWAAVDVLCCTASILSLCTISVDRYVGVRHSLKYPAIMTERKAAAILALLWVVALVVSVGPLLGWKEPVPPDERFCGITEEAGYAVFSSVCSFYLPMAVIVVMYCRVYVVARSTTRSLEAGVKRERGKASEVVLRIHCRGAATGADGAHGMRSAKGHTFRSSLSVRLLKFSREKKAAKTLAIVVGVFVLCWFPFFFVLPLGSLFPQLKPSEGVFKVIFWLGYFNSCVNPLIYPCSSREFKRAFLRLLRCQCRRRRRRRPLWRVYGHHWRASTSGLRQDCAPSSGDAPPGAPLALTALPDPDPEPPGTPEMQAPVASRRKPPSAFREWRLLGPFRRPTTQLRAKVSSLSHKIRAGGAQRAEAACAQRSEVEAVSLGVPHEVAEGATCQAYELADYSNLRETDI
Assay type: cell membranes, HEK293, Membrane
Settings: read-out: Ki
pKi: −log10 of the molar value.
Classification field: enter T for pKi values not below 7, F for values below it.

Record excerpt, results attached:
1) N=C(N)N/N=C/c1c(Cl)cccc1Cl [GUANABENZ]: F
2) CN1C[C@H](C(=O)N[C@]2(C)O[C@@]3(O)[C@@H]4CCCN4C(=O)[C@H](Cc4ccccc4)N3C2=O)C[C@@H]2c3cccc4[nH]cc(c34)C[C@H]21 [DIHYDROERGOTAMINE]: T
3) OCCN1CCN(CCCN2c3ccccc3Sc3ccc(C(F)(F)F)cc32)CC1 [FLUPHENAZINE]: T
4) CC(C)C[C@H]1C(=O)N2CCC[C@H]2[C@]2(O)O[C@](NC(=O)[C@@H]3C=C4c5cccc6[nH]c(Br)c(c56)C[C@H]4N(C)C3)(C(C)C)C(=O)N12 [BROMOCRIPTINE]: T
5) O=c1[nH]c2ccccc2n1CCCN1CCC(n2c(=O)[nH]c3cc(Cl)ccc32)CC1 [DOMPERIDONE]: F

Now look at this one.
Textbook exercise: given the entry CC(CCc1ccc(O)cc1)NCCc1ccc(O)c(O)c1 (configuration not stated) [DOBUTAMINE] , state whether its pKi is greater than or equal to 7.
T
